Experiment: P-glycoprotein substrates identified in KB-8-5-11 adenocarcinoma cell line, qHTS therapeutic library screen (AID 1346987); further: nearly all actives have a fitted effect of over 65% in size
Conditions: KB-8-5-11 (P-gp overexpressing) viability, CellTiter-Glo, 72 h; series mostly up to 44.5 µM
Inconclusive results are not listed. Active and inactive are the calls of the source. The call rests on the fitted dose curve; in most records, active means well fitted inhibition curve with a large enough effect; inconclusive means small, poorly fitted or top-dose-only effect; inactive means flat fitted curve, though single readings scatter.
Lab note: assign the record to one of active, inactive

Known results for molecules:
| molecule | cat |
| --- | --- |
| C=C(C(=O)O)C1CCC2(C)CCC(O)C(=C)C2C1 (stereo not drawn) | inactive |
| Cc1cc2c(c(=O)[nH]1)OC(C(O)CC(C)C)O2 (stereo not drawn) | inactive |

Proceed to the following item.
# lookup: test call for `COc1ncc(Nc2ncc([C@@H](C)N3CCN(S(C)(=O)=O)CC3)cc2-c2nc(C)nc(N)n2)cc1F`
active

----------
System: Tov112D
Assay: Primary qHTS to identify gynecologic anti-cancer compounds using libraries of approved drugs and bioactive compounds (AID 1345084); further: nearly all actives have a fitted effect of over 55% in size
Conditions: Gynecologic cancer cell panel viability, ATPlite luminescence, 48 h; series mostly up to 57.5 µM
Results filed as inconclusive are left out. The source made the active and inactive calls. The call rests on the fitted dose curve; in most records, active means well fitted cell-killing curve with a large enough effect; inconclusive means small, poorly fitted or top-dose-only effect, or effect the other way; inactive means flat fitted curve, though single readings scatter.
Lab note: assign the record to one of 1 (active), 0 (inactive)

| compound | cat |
| --- | --- |
| Cc1c(F)cc(C(=O)NC2CC2)cc1-c1c(F)cn2c(C(C)(C)C)nnc2c1F | 0 |

# lookup: test call for `O=C(OC[C@@]1(O)CO[C@@H](O[C@H]2[C@H](Oc3ccc(O)cc3)O[C@H](CO)[C@@H](O)[C@@H]2O)[C@@H]1O)c1ccc(O)cc1`
0

# lookup: test call for CN(C)CC1CCOC1(c1ccccc1)c1ccccc1 (centres undefined)
0

# lookup: test call for COc1cccc2cc3c(c(O[C@@H]4O[C@H](CO[C@@H]5O[C@H](CO)[C@@H](O)[C@H](O)[C@H]5O)[C@@H](O)[C@H](O)[C@H]4O)c12)C(C)OC3=O (some centres undefined)
0

# lookup: test call for CC1CC(=O)C2=C(CCC3(O)C(O)c4c(O)cccc4C(=O)C23O)C1 (centres undefined)
0

# lookup: test call for `C[C@@]1(O)[C@H](O)[C@@H](CO)O[C@H]1n1ccc(N)nc1=O`
0

# lookup: test call for `C[C@@]12CC[C@@H]3[C@@](CC[C@H]4[C@@]3(C)CCC[C@@]4(C)C(=O)O)(CC1=O)C2`
0

# lookup: test call for CC(C)=CCC[C@](C)(O)[C@H]1CC[C@]2(C)[C@@H]1[C@H](O)CC1[C@@]3(C)CC[C@H](O)C(C)(C)C3[C@@H](O[C@@H]3O[C@H](CO)[C@@H](O)[C@H](O)[C@H]3O[C@@H]3OC[C@@H](O)[C@H](O)[C@H]3O)C[C@]12C (some centres undefined)
0

# lookup: test call for `COc1cc(N2CCC(N3CCN(C)CC3)CC2)ccc1Nc1ncc(Cl)c(-c2c[nH]c3ccccc23)n1`
1

----------
Test system: Es-2
Experiment: Primary qHTS to identify gynecologic anti-cancer compounds using libraries of approved drugs and bioactive compounds (AID 1345084); further: nearly all actives have a fitted effect of over 55% in size
Conditions: Gynecologic cancer cell panel viability, ATPlite luminescence, 48 h; series mostly up to 57.5 µM
Records with an inconclusive call do not appear. Calls of active or inactive are those of the source. The call rests on the fitted dose curve; in most records, active means well fitted cell-killing curve with a large enough effect; inconclusive means small, poorly fitted or top-dose-only effect, or effect the other way; inactive means flat fitted curve, though single readings scatter.
Lab note: assign the record to one of TRUE for active, FALSE for inactive

Known results for compounds:
| compound | cat |
| --- | --- |
| CCC(C)C(=O)OC1CC(O)C23C4OCC5(C(O)CC2C1(C)C(O)O4)C3C(=O)C(O)C1(C)C(O)(c2ccoc2)CC2OC251 (configuration not stated) | TRUE |
| CN(C)C/C=C/C(=O)Nc1cccc(C(=O)Nc2cccc(Nc3ncc(Cl)c(-c4c[nH]c5ccccc45)n3)c2)c1 | TRUE |
| O=C(Nc1ccc(S(=O)(=O)Nc2nccs2)cc1)C(c1ccccc1)c1ccccc1 | FALSE |

# lookup: test call for `CS(=O)(=O)N(CC(=O)NCC1CC1)c1cc(C(F)(F)F)ccc1Cl`
FALSE

# lookup: test call for `COc1cc2c(cc1O)[C@H](c1ccc(O[C@@H]3O[C@H](CO)[C@@H](O)[C@H](O)[C@H]3O)c(OC)c1)[C@@H](CO)[C@](O)(CO)C2`
FALSE

# lookup: test call for CC1CCCCN1S(=O)(=O)c1ccc(N2CCCC2=O)cc1 (configuration not stated)
FALSE

# lookup: test call for CNS(=O)(=O)CC1CCC(N(C)c2ncnc3[nH]ccc23)CC1 (configuration not stated)
FALSE
